target: Gal(b1-3)[Fuc(a1-4)]GlcNAc(b1-6)GalNAc; test: glycan array binding signal (z-score within array); higher = stronger binding; settings: glycan notation: IUPAC condensed, linker removed
The full list was thinned out, with the strongest signals kept by preference.
I would appreciate it if you labelled entries 1 when glycan array binding signal (z-score) is -0.2 or higher, otherwise -1.

# BINDER, CLASSIFICATION
records = [
    ("DrGal3 (Danio rerio) (protein) MDLSDALDAPPQQNNQQAGGPVWPGQPANPVWPGQPANPTWPGQPNQPAWPGQPNQQWPGQPGQPTAPGWPGPAPQTGPYGAPGQAPQVLTVPLDFPLQNGAYNKMLITINGEVKPNAKQFTVNLRRGNDIAFHINPRFSEGGKPVIVRNSMIGNNWGREERELPSFPFVPGKPFEMKILITDTEYKVAVNKSHLLEFKHRVFELNQITGLSIYNDVTLSTVNVETLQ", -1),
    ("pilr alpha (protein) MLYGVTQPKHLSASMGGSVEIPFSFYYPWELATAPDVRISWRRGHFHRQSFYSTRPPSIHKDYVNRLFLNWTEGQKSGFLRISNLQKQDQSVYFCRVELDTRSSGRQQWQSIEGTKLSIT", -1),
    ("Gal 8 (Homo sapiens) (protein) MLSLNNLQNIIYNPVIPYVGTIPDQLDPGTLIVICGHVPSDADRFQVDLQNGSSVKPRADVAFHFNPRFKRAGCIVCNTLINEKWGREEITYDTPFKREKSFEIVIMVLKDKFQVAVNGKHTLLYGHRIGPEKIDTLGIYGKVNIHSIGFSFSSDLQSTQASSLELTEISRENVPKSGTPQLQTVSPSWDLQGHGSETFCSVLWTRVFLEIAFCRPIGLTVASFQSLPFAARLNTPMGPGRTVVVKGEVNANAKSFNVDLLAGKSKDIALHLNPRLNIKAFVRNSFLQESWGEEERNITSFPFSPGMYFEMIIYCDVREFKVAVNGVHSLEYKHRFKELSSIDTLEINGDIHLLEVRSW", -1),
    ("B936 (Bifidobacterium sp) (protein) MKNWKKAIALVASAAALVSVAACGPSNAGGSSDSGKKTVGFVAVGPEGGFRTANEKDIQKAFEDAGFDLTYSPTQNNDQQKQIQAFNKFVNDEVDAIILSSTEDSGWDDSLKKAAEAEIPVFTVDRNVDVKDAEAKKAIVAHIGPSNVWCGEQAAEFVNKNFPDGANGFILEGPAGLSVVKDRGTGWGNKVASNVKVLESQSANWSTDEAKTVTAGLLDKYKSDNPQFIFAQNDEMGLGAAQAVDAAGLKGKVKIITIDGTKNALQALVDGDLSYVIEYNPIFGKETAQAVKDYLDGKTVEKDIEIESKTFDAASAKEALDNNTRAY", 1),
    ("SUN4 (Saccharomyces cerevisiae), P53616 (protein) MGSSHHHHHHSSGLVPRGSHNGSIYGDLADFSGPYEKFEDGTIPCGQFPSGQGVIPISWLDEGGWSGVENTDTSTGGSCKEGSYCSYACQPGMSKTQWPSDQPSDGRSIGGLLCKDGYLYRSNTDTDYLCEWGVDAAYVVSELSNDVAICRTDYPGTENMVIPTYVQAGDSLPLTVVDQDTYYTWQGLKTSAQYYVNNAGISVEDACVWGSSSSGVGNWAPLNFGAGSSDGVAYLSLIPNPNNGNALNFNVKIVAADDSSTVNGECIYENGSFSGGSDGCTVSVTAGKAKFVLYN", 1),
]
